- System name: Muscarinic acetylcholine receptor M3 (Homo sapiens) (UniProt P20309)
- Sequence (P20309 whole entry, looked up): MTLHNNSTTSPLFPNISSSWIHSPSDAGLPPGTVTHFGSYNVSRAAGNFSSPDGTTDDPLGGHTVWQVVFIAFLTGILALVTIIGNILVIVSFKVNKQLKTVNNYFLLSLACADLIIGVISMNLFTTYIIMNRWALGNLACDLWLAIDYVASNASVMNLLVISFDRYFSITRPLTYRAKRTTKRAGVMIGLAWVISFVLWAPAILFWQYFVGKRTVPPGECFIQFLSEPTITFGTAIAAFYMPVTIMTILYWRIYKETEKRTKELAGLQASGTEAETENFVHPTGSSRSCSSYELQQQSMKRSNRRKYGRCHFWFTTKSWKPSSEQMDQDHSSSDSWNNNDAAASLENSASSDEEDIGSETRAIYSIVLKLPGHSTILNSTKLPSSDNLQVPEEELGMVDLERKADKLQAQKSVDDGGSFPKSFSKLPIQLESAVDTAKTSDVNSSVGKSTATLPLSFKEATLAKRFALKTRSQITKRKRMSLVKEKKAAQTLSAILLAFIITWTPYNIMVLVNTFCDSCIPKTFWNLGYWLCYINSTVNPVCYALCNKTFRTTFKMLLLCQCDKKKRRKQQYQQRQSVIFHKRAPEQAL
- Assay overview: Binding affinity at the unliganded human muscarinic acetylcholine receptor M3 was estimated as log affinity (log1/M)
Readout label: Affinity

// known answers, use as guide
{"Compound": "CC[N+]12CC[C@@]34c5ccccc5N5C(=O)C[C@@H]6OCC=C(C1)[C@H](C[C@@H]32)[C@@H]6[C@H]54 (stereo not given in full)", "Affinity": 4.2}
{"Compound": "COc1cc2c(cc1OC)[C@@]13CC[N+]4(C)CC5=CCO[C@H]6CC(=O)N2[C@H]1[C@H]6[C@H]5C[C@@H]34 (stereo not given in full)", "Affinity": 3.5}
{"Compound": "C=CC[N+]12CC[C@@]34c5ccccc5N5/C=C6/[C@H]7C[C@H]8[C@@]9(CC[N@@+]8(CC=C)C/C7=C/CO)c7ccccc7N(/C=C(/[C@@H](C[C@@H]31)/C(=C\\CO)C2)[C@H]54)[C@@H]69 (stereo not given in full)", "Affinity": "< 4"}
{"Compound": "O=C1C[C@@H]2OCC=C3C[N+]4(CCc5ccccc5)CC[C@]56c7ccccc7N1[C@H]5[C@H]2[C@H]3C[C@@H]64 (stereo not given in full)", "Affinity": 4.8}

Entry under review: O=C1C[C@@H]2OCC=C3C[N+]4(Cc5ccc(-c6ccccc6)cc5)CC[C@]56c7ccccc7N1[C@H]5[C@H]2[C@H]3C[C@@H]64 (stereo not given in full) . Reported Affinity? 5.6

---

- System name: Muscarinic acetylcholine receptor M1 (Homo sapiens) (UniProt P11229)
- Sequence (P11229 whole entry): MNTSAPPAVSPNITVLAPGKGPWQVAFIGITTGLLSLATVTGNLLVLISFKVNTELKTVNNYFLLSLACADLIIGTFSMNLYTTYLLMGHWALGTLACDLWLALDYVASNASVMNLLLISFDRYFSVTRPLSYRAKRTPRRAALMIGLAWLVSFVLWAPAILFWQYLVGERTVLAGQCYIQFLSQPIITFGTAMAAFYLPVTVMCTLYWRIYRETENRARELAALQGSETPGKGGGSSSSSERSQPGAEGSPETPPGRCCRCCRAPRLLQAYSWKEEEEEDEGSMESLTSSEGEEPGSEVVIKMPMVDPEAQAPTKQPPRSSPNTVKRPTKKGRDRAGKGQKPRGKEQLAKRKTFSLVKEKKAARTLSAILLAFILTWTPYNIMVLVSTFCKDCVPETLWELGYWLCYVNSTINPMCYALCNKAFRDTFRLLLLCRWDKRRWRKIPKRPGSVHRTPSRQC
- Assay overview: Cooperativity with NMS at human muscarinic acetylcholine receptor M1
Could you please report measured Cooperativity for the items listed next?
Give bare numbers.

{"Compound": "CC[N+]12CC[C@@]34c5ccccc5N5C(=O)C[C@@H]6OCC=C(C1)[C@H](C[C@@H]32)[C@@H]6[C@H]54 (some centres not stated)", "Cooperativity": 2}
{"Compound": "O=C1C[C@@H]2OCC=C3C[N+]4(CC5CCCCC5)CC[C@]56c7ccccc7N1[C@H]5[C@H]2[C@H]3C[C@@H]64 (some centres not stated)", "Cooperativity": 2}
{"Compound": "COc1cc2c(cc1OC)[C@@]13CC[N+]4(Cc5ccccc5)CC5=CCO[C@H]6CC(=O)N2[C@H]1[C@H]6[C@H]5C[C@@H]34 (some centres not stated)", "Cooperativity": 0.8}
{"Compound": "COc1cc2c(cc1OC)[C@@]13CC[N+]4(C)CC5=CCO[C@H]6CC(=O)N2[C@H]1[C@H]6[C@H]5C[C@@H]34 (some centres not stated)", "Cooperativity": 1.19}

Can you give me Cooperativity for all of these, one by one?
1. CCC[N+]12CC[C@@]34c5ccccc5N5C(=O)C[C@@H]6OCC=C(C1)[C@H](C[C@@H]32)[C@@H]6[C@H]54 (some centres not stated)
2. C=CC[N+]12CC[C@@]34c5ccccc5N5C(=O)C[C@@H]6OCC=C(C1)[C@H](C[C@@H]32)[C@@H]6[C@H]54 (some centres not stated)
3. N[N+]12CC[C@@]34c5ccccc5N5C(=O)C[C@@H]6OCC=C(C1)[C@H](C[C@@H]32)[C@@H]6[C@H]54 (some centres not stated)

1: 0.8; 2: 1.19; 3: 2

---

Could you please report measured Affinity for the items listed next?
- System name: Muscarinic acetylcholine receptor M2 (Homo sapiens) (UniProt P08172)
- Sequence (P08172 whole entry): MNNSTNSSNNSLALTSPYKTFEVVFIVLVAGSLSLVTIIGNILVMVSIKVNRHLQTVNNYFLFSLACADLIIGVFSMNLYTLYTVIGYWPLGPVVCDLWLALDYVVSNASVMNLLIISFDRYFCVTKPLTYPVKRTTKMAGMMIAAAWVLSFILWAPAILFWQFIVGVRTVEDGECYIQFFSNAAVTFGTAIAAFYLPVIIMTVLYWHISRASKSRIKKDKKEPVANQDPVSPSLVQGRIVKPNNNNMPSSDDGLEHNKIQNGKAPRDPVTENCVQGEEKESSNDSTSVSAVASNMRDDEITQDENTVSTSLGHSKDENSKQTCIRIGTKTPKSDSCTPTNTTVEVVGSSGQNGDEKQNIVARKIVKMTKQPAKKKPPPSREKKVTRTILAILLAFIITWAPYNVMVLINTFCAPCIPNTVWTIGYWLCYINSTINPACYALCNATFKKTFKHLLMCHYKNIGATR
- Assay overview: Binding affinity at the unliganded human muscarinic acetylcholine receptor M2 was estimated as log affinity (log1/M)
One number for each entry.

Can you give me Affinity for all of these, one by one?
1. C=CC[N+]12CC[C@@]34c5cc(OC)c(OC)cc5N5C(=O)C[C@@H]6OCC=C(C1)[C@H](C[C@@H]32)[C@@H]6[C@H]54 (stereo partly specified)
2. O=C1C[C@@H]2OCC=C3C[N+]4(Cc5ccc(-c6ccccc6)cc5)CC[C@]56c7ccccc7N1[C@H]5[C@H]2[C@H]3C[C@@H]64 (stereo partly specified)

4.5
5.6

Can you give me Affinity for all of these, one by one?
1. N#CC[N+]12CC[C@@]34c5ccccc5N5C(=O)C[C@@H]6OCC=C(C1)[C@H](C[C@@H]32)[C@@H]6[C@H]54 (stereo partly specified)
2. CCC[N+]12CC[C@@]34c5ccccc5N5C(=O)C[C@@H]6OCC=C(C1)[C@H](C[C@@H]32)[C@@H]6[C@H]54 (stereo partly specified)
3. O=C1C[C@@H]2OCC=C3C[N+]4(Cc5ccc6ccccc6c5)CC[C@]56c7ccccc7N1[C@H]5[C@H]2[C@H]3C[C@@H]64 (stereo partly specified)

[4.5, 5.2, 5.5]

---

- System name: Muscarinic acetylcholine receptor M1 (Homo sapiens) (UniProt P11229)
- Assay overview: Binding affinity at the NMS liganded human muscarinic acetylcholine receptor M1 was estimated as log affinity (log1/M)
Rule: Affinity of 5 or more gives true (1); anything lower gives false (0).

Consider the following illustrative entries.
{"Molecule": "O=C1C[C@@H]2OCC=C3C[N+]4([O-])CC[C@]56c7ccccc7N1[C@H]5[C@H]2[C@H]3C[C@@H]64 (some centres not stated)", "Category": "false (0)"}
{"Molecule": "N[N+]12CC[C@@]34c5ccccc5N5C(=O)C[C@@H]6OCC=C(C1)[C@H](C[C@@H]32)[C@@H]6[C@H]54 (some centres not stated)", "Category": "false (0)"}
{"Molecule": "COc1cc2c(cc1OC)[C@@]13CC[N+]4(CCl)CC5=CCO[C@H]6CC(=O)N2[C@H]1[C@H]6[C@H]5C[C@@H]34 (some centres not stated)", "Category": "false (0)"}
{"Molecule": "O=C1C[C@@H]2OCC=C3C[N+]4(Cc5ccc6ccccc6c5)CC[C@]56c7ccccc7N1[C@H]5[C@H]2[C@H]3C[C@@H]64 (some centres not stated)", "Category": "true (1)"}

Has C[N+]12CC[C@@]34c5ccccc5N5C(=O)C[C@@H]6OCC=C(C1)[C@H](C[C@@H]32)[C@@H]6[C@H]54 (some centres not stated) a recorded Affinity greater than or equal to 5? false (0)

Has COc1cc2c(cc1OC)[C@@]13CC[N+]4(Cc5ccccc5)CC5=CCO[C@H]6CC(=O)N2[C@H]1[C@H]6[C@H]5C[C@@H]34 (some centres not stated) a recorded Affinity greater than or equal to 5? false (0)

---

- System name: Muscarinic acetylcholine receptor M3 (Homo sapiens) (UniProt P20309)
- Assay overview: Binding affinity at the NMS liganded human muscarinic acetylcholine receptor M3 was estimated as log affinity (log1/M)
Affinity under 4 gets TRUE, anything at or over 4 gets FALSE.

{"Compound": "COc1cc2c(cc1OC)[C@@]13CC[N+]4(CCl)CC5=CCO[C@H]6CC(=O)N2[C@H]1[C@H]6[C@H]5C[C@@H]34 (some centres undefined)", "Category": "TRUE"}
{"Compound": "N[N+]12CC[C@@]34c5ccccc5N5C(=O)C[C@@H]6OCC=C(C1)[C@H](C[C@@H]32)[C@@H]6[C@H]54 (some centres undefined)", "Category": "FALSE"}
{"Compound": "O=C1C[C@@H]2OCC=C3C[N+]4(Cc5ccc6ccccc6c5)CC[C@]56c7ccccc7N1[C@H]5[C@H]2[C@H]3C[C@@H]64 (some centres undefined)", "Category": "FALSE"}

is_below(Affinity, 4) for O=C1C[C@@H]2OCC=C3C[N+]4(CCc5ccccc5)CC[C@]56c7ccccc7N1[C@H]5[C@H]2[C@H]3C[C@@H]64 (some centres undefined) ? FALSE

is_below(Affinity, 4) for C=CC[N+]12CC[C@@]34c5ccccc5N5/C=C6/[C@H]7C[C@H]8[C@@]9(CC[N@@+]8(CC=C)C/C7=C/CO)c7ccccc7N(/C=C(/[C@@H](C[C@@H]31)/C(=C\CO)C2)[C@H]54)[C@@H]69 (some centres undefined) ? TRUE

is_below(Affinity, 4) for C#CC[N+]12CC[C@@]34c5ccccc5N5C(=O)C[C@@H]6OCC=C(C1)[C@H](C[C@@H]32)[C@@H]6[C@H]54 (some centres undefined) ? FALSE

is_below(Affinity, 4) for COc1cc2c(cc1OC)[C@@]13CC[N+]4(C)CC5=CCO[C@H]6CC(=O)N2[C@H]1[C@H]6[C@H]5C[C@@H]34 (some centres undefined) ? TRUE

is_below(Affinity, 4) for C=CC[N+]12CC[C@@]34c5ccccc5N5C(=O)C[C@@H]6OCC=C(C1)[C@H](C[C@@H]32)[C@@H]6[C@H]54 (some centres undefined) ? FALSE

---

- System name: Muscarinic acetylcholine receptor M2 (Homo sapiens) (UniProt P08172)
- Assay overview: Binding affinity at the unliganded human muscarinic acetylcholine receptor M2 was estimated as log affinity (log1/M)
Readout label: Affinity
One number for each entry.

// known answers, use as guide
{"Compound": "O=C1C[C@@H]2OCC=C3C[N+]4(CCc5ccccc5)CC[C@]56c7ccccc7N1[C@H]5[C@H]2[C@H]3C[C@@H]64 (some centres undefined)", "Endpoint value": 5.3}
{"Compound": "COc1cc2c(cc1OC)[C@@]13CC[N+]4(CCl)CC5=CCO[C@H]6CC(=O)N2[C@H]1[C@H]6[C@H]5C[C@@H]34 (some centres undefined)", "Endpoint value": 4.2}

Entry under review: COc1cc2c(cc1OC)[C@@]13CC[N+]4(Cc5ccccc5)CC5=CCO[C@H]6CC(=O)N2[C@H]1[C@H]6[C@H]5C[C@@H]34 (some centres undefined) . Reported Affinity? 4.6
